The values you see were collected from the supplement of paper PMC11451515.

tested on: P12-Ichikawa; test: cell viability relative to DMSO control; higher = less cytotoxic; settings: HPLM + 10% dialyzed FBS; 48 h; 0.00702 µM
reported-metric: cell viability (%)

- compound: "C[C@H]1CCC/C=C/C2C[C@H](O)C[C@H]2[C@H](O)/C=C/C(=O)O1 (stereo partly specified)"
  target-entity: "P12-Ichikawa"
  observed-result: 94.8
- compound: "CC(C)(Cc1ccc2ccccc2c1)NC[C@@H](O)COc1cccc(Cl)c1C#N"
  target-entity: "P12-Ichikawa"
  observed-result: 126
- compound: "CN[C@@H](C)C(=O)N[C@H]1CCCC[C@H]2CC[C@@H](C(=O)N[C@@H](c3ccccc3)c3cn(CCCCc4ccc(CCCCn5cc([C@@H](NC(=O)[C@@H]6CC[C@@H]7CCCC[C@H](NC(=O)[C@H](C)NC)C(=O)N76)c6ccccc6)nn5)cc4)nn3)N2C1=O"
  target-entity: "P12-Ichikawa"
  observed-result: 99.3
- compound: "COc1cc(/C=C/C(=O)CC(=O)/C=C/c2ccc(O)c(OC)c2)ccc1O"
  target-entity: "P12-Ichikawa"
  observed-result: 108
- compound: "CC(Oc1ccc(O)cc1)(P(=O)(O)O)P(=O)(O)O"
  target-entity: "P12-Ichikawa"
  observed-result: 94.9
- compound: "c1ccc(-c2nn3c(c2-c2ccnc4cc(OCCN5CCOCC5)ccc24)CCC3)nc1"
  target-entity: "P12-Ichikawa"
  observed-result: 111
- compound: "CN(C)CCC=C1C2=C(C=CC=C2)\\C=C/C3=C1C=CC=C3"
  target-entity: "P12-Ichikawa"
  observed-result: 114
- compound: "Nc1cccc(-c2cc3c(Oc4cccc(O)c4)ncnc3[nH]2)c1"
  target-entity: "P12-Ichikawa"
  observed-result: 123
- compound: "CCc1cc(/C(C)=N/OCc2ccc(C3CCCCC3)c(C(F)(F)F)c2)ccc1CN1CC(C(=O)O)C1"
  target-entity: "P12-Ichikawa"
  observed-result: 112
- compound: "C[C@H]([C@H]1C\\C(=C(CO)/C(=O)O1)C)[C@H]2CC[C@H]3[C@@H]4C[C@H]5O[C@]56[C@@H](O)\\C=C/C(=O)[C@]6(C)[C@H]4CC[C@]23C"
  target-entity: "P12-Ichikawa"
  observed-result: 123
- compound: "CNC(=O)c1cc(Oc2ccc(NC(=O)Nc3cc(C(C)(C)C)nn3-c3ccc4ncccc4c3)c(F)c2)ccn1"
  target-entity: "P12-Ichikawa"
  observed-result: 124
- compound: "CC1=CC2=C(O1)C(=C3OC(=O)\\C=C(C)/C3=C2)C"
  target-entity: "P12-Ichikawa"
  observed-result: 113
- compound: "COc1cc(N2CCC(N3CCN(C)CC3)CC2)ccc1Nc1ncnc(Nc2ccccc2[S+](=O)([O-])C(C)C)n1"
  target-entity: "P12-Ichikawa"
  observed-result: 120
- compound: "CC(C)c1ccc2oc3nc(N)c(C(=O)O)cc3c(=O)c2c1"
  target-entity: "P12-Ichikawa"
  observed-result: 119
- compound: "Cn1c(=O)c2c(ncn2CC(O)CO)n(C)c1=O (stereo unspecified)"
  target-entity: "P12-Ichikawa"
  observed-result: 110
- compound: "CC1=C2N=C([NH]C2=CC(=C1)N3CCOCC3)\\C4=C(NC[C@@H](O)C5=CC=CC(=C5)Cl)\\C=C/NC4=O"
  target-entity: "P12-Ichikawa"
  observed-result: 103

---

system: P12-Ichikawa; test: cell viability relative to DMSO control; higher = less cytotoxic; conditions: RPMI 5 mM glucose + 10% dialyzed FBS; 48 h; 1.71 µM
The following molecules are listed with their measured cell viability values.
reported-metric: cell viability (%)

- molecule: "CCOc1cc2c(c(F)c1OCC)C(=N)N(CC(=O)c1cc(N3CCOCC3)c(OC)c(C(C)(C)C)c1)C2"
  unit: "%"
  observed-result: 117
- molecule: "O=C(Oc1ccc([N+](=O)[O-])cc1)N1CCN(Cc2cccc(Oc3ccccc3)c2)CC1"
  unit: "%"
  observed-result: 114
- molecule: "CCC(CC)[C@H](NC(C)=O)[C@@H]1[C@H](O)[C@@H](C(=O)O)C[C@H]1NC(=N)N"
  unit: "%"
  observed-result: 81.8
- molecule: "COC1=CC=C(C=C1)C/2=C/OC3=CC(=CC=C3C2=O)O"
  unit: "%"
  observed-result: 104
- molecule: "CC(C)[C@H](CO)Nc1nc(Nc2ccc(C(=O)O)c(Cl)c2)c2ncn(C(C)C)c2n1"
  unit: "%"
  observed-result: 94
- molecule: "CC1=C(C)C2=C(S1)[N]3C(=NN=C3[C@H](CC(=O)OC(C)(C)C)/N=C2/C4=CC=C(Cl)C=C4)C"
  unit: "%"
  observed-result: 50.4
- molecule: "CC1=C(/C=C/C(C)=C/C=C/C(C)=C/C(=O)Nc2ccc(O)cc2)C(C)(C)CCC1"
  unit: "%"
  observed-result: 23.8
- molecule: "COc1cc2c(NC3CCN(C(C)C)CC3)nc(C3CCCCC3)nc2cc1OCCCN1CCCC1"
  unit: "%"
  observed-result: 133
- molecule: "CCOC(=O)c1ncn2c1CN(C)C(=O)c1cc(F)ccc1-2"
  unit: "%"
  observed-result: 102
- molecule: "NC/1=N/C(=O)N(/C=C1)[C@H]2CC[C@@H](CO)O2"
  unit: "%"
  observed-result: 93.9
- molecule: "CC1(C)OC/2=C(\\[C@H](NCC3=CC=CC=C3)[C@@H]1O)C(=O)C4=CC=CC=C4C2=O"
  unit: "%"
  observed-result: 96.7
- molecule: "COc1cc2nc(-c3ccc(N4CCN(C)CC4)cc3)nc(NCCN3CCOCC3)c2cc1OC"
  unit: "%"
  observed-result: 65.8
- molecule: "Clc1ccc(COC(Cn2ccnc2)c2ccc(Cl)cc2Cl)cc1 (configuration not stated)"
  unit: "%"
  observed-result: 107
- molecule: "CC1(C)CC(=O)c2c(C(F)(F)F)nn(-c3ccc(C(N)=O)c(NC4CCC(OC(=O)CN)CC4)c3)c2C1 (configuration not stated)"
  unit: "%"
  observed-result: 32.3
- molecule: "c1cc(-c2sc(-c3ccncc3)c(-c3ccncc3)c2-c2ccncc2)ccn1"
  unit: "%"
  observed-result: 118
- molecule: "CC(=O)SCC(Cc1ccccc1)C(=O)NCC(=O)OCc1ccccc1 (configuration not stated)"
  unit: "%"
  observed-result: 103
- molecule: "CCOC(=O)c1ccc(C#Cc2ccc3c(c2)C(C)(C)CCS3)nc1"
  unit: "%"
  observed-result: 113

---

Collected cell viability values appear next to each entry.
tested on: P12-Ichikawa; experiment: cell viability relative to DMSO control; higher = less cytotoxic; conditions: RPMI 5 mM glucose + 10% dialyzed FBS; 48 h; 0.00234 µM
reported-metric: cell viability (%)

- compound: "CN(C)c1ccc(C(=O)NCCCCCCC(=O)NO)cc1"
  reported-metric: "cell viability"
  unit: "%"
  observed-result: 105
- compound: "CCOc1ccccc1OCCNC(C)Cc1ccc(OC)c([S+](N)(=O)[O-])c1 (stereo not given)"
  reported-metric: "cell viability"
  unit: "%"
  observed-result: 103
- compound: "c1cc(OCCN2CCCCC2)cc(-c2n[nH]c3ccc(-c4nc[nH]n4)cc23)c1"
  reported-metric: "cell viability"
  unit: "%"
  observed-result: 111
- compound: "C[C@@]12OC(=O)[C@@]1(NC(=O)[C@@H]2CCCl)[C@@H](O)[C@H]\\3CCC\\C=C3"
  reported-metric: "cell viability"
  unit: "%"
  observed-result: 110
- compound: "Cn1c(=O)c2c(ncn2CC(O)CO)n(C)c1=O (stereo not given)"
  reported-metric: "cell viability"
  unit: "%"
  observed-result: 114

---

Each entry below carries its reported cell viability.
system: P12-Ichikawa; assay: cell viability relative to DMSO control; higher = less cytotoxic; conditions: RPMI 5 mM glucose + 10% FBS; 48 h; 0.000781 µM
reported-metric: cell viability (%)

- molecule: "COc1cc2c(NC3CCN(C(C)C)CC3)nc(C3CCCCC3)nc2cc1OCCCN1CCCC1"
  reported-metric: "cell viability"
  observed-result: 112
- molecule: "COc1cc(/C=C/C(=O)CC(=O)/C=C/c2ccc(O)c(OC)c2)ccc1O"
  reported-metric: "cell viability"
  observed-result: 102
- molecule: "CC1(C)OC/2=C(\\[C@H](NCC3=CC=CC=C3)[C@@H]1O)C(=O)C4=CC=CC=C4C2=O"
  reported-metric: "cell viability"
  observed-result: 100
- molecule: "Clc1ccc(COC(Cn2ccnc2)c2ccc(Cl)cc2Cl)cc1 (centres undefined)"
  reported-metric: "cell viability"
  observed-result: 116

---

test system: SEM cells; test: cell viability relative to DMSO control; higher = less cytotoxic; conditions: RPMI 5 mM glucose + 10% dialyzed FBS; 48 h; 0.569 µM
Param label: returns satisfied when cell viability < 90%, returns not satisfied otherwise, including exact equality.

- compound: "CC1OC(OC/2=C(/OC3=C(C(=CC(=C3)O)O)C2=O)C4=CC=C(O)C=C4)C(O)C(OC(C)=O)C1OC(C)=O (stereo not given)"
  class-name: "not satisfied"
- compound: "CCOP(=O)(OCC)C(C)NC(=O)N(CCCl)N=O (stereo not given)"
  class-name: "not satisfied"
- compound: "CC(C)[C@@H](N(CCCN)C(=O)C1=CC=C(C)C=C1)C/2=C(\\CC3=CC=CC=C3)C(=O)C4=C(O2)C=C(Cl)C=C4"
  class-name: "satisfied"
- compound: "CCCCOc1ccc(C(=O)Nc2ccc(F)cc2F)cc1"
  class-name: "satisfied"
